Provide the recorded AC50 for the entries that follow.
Test system: P. falciparum Dd2 in RBCs, SYBR green growth
run description: antimalarial activity against Dd2 parasites – Dd2 strain, red blood cells, dry powder, PfHsp90 inhibitor project, dose response (AID 588838)

Task: What value of AC50 has been recorded for this entry: O=S(=O)(NC1CC2CCC1C2)c1ccc(Cl)cc1 (stereo unspecified)
Output: 98.5 µM

Task: What value of AC50 has been recorded for this entry: O=S(=O)(/C=C/c1ccccc1)NC1CCCCCCC1
Output: 66.1 µM

Task: What value of AC50 has been recorded for this entry: O=S(=O)(NC1CCCCCC1)c1ccc(Br)s1
Output: 16.3 µM

Task: What value of AC50 has been recorded for this entry: COc1ccc2c(c1)C=C(C(=O)NCc1ccc(Cl)cc1)CO2
Output: 43.9 µM

Task: What value of AC50 has been recorded for this entry: O=C(CSCC(=O)N1CCCCC1)Nc1nc(-c2ccc(Cl)s2)cs1
Output: 40 µM

Task: What value of AC50 has been recorded for this entry: Cc1ccc(OCc2n[nH]c(=S)n2C2CCCCC2)cc1
Output: 60.6 µM
